Provide the reported growth inhibition of each item.
assay: NCI Yeast Anticancer Drug Screen. Data for the cln2 rad14 strain (AID 165);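 further: 0% = growth equal to vehicle treated cultures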; conditions: S. cerevisiae cln2 rad14 strain, at 50.0 µM, active compounds read high
About 79,000 compounds went through this panel and 15% of them were active in at least one assay; those are over-represented in the sample as a whole.
Record the value in %, omitting the unit from your answer.

Task: Quick check: growth inhibition of COC(=O)c1sc2c(=O)c(C(=O)OC)c(C(=O)OC)sc2c(=O)c1C(=O)OC ?
Result: -1.1

Task: Quick check: growth inhibition of CCCCC(c1nc2c(c3c1CCCC3)CCCC2)C(O)(C(F)(F)F)C(F)(F)F (stereo not given) ?
Result: -4.15

Task: Quick check: growth inhibition of COC(=O)c1nc(N)nc(C(=O)OC)c1C(=O)C(C)(C)C ?
Result: -23.6

Task: Quick check: growth inhibition of CC(=O)Nc1ccc(S(=O)(=O)NCCC(=O)O)cc1 ?
Result: 4.3

Task: Quick check: growth inhibition of O=C1CCC(N2C(=O)C3C4CCC(CC4)C3C2=O)C(=O)N1 (stereo not given) ?
Result: -1.65

Task: Quick check: growth inhibition of CC(C)(N)CNCCO ?
Result: -18.1

Task: Quick check: growth inhibition of Clc1cc(/C=C/c2ccccc2)c2ccccc2n1 ?
Result: -7.5

Task: Quick check: growth inhibition of CN(CCN(C)C(=O)CCn1cc(F)c(=O)[nH]c1=O)C(=O)CCn1cc(F)c(=O)[nH]c1=O ?
Result: 18.1

Task: Quick check: growth inhibition of Nc1ccc(C(=O)NN2C(=O)C(Cl)C2c2cccc(O)c2)cc1 (stereo not given) ?
Result: -14.2

Task: Quick check: growth inhibition of Cc1cnc(NCCCCNc2ncc(C)c(-c3ccccc3O)n2)nc1-c1ccccc1O ?
Result: -27.1

Task: Quick check: growth inhibition of Cc1cc(=O)[nH]c(NN2C(Cl)C(=O)C2c2cccc([N+](=O)[O-])c2)n1 (stereo not given) ?
Result: -7.1

Task: Quick check: growth inhibition of O=C(Nc1nc2ncn(CCNCCn3cnc4nc(NC(=O)c5ccccc5)[nH]c(=O)c43)c2c(=O)[nH]1)c1ccccc1 ?
Result: 25.9

Task: Quick check: growth inhibition of C/C(CC(C)(C)C)=N/NS(=O)(=O)c1ccc(C)cc1 ?
Result: 1.75

Task: Quick check: growth inhibition of Cc1ccc(-c2c3nc(c(-c4ccc(C)cc4)c4ccc([nH]4)c(-c4ccc(OCC5COC(C)(C)O5)cc4)c4nc(c(-c5ccc(C)cc5)c5ccc2[nH]5)C=C4)C=C3)cc1 (stereo not given) ?
Result: -23.9

Task: Quick check: growth inhibition of CCCCN=Cc1ccc(Cl)cc1 ?
Result: 6.5

Task: Quick check: growth inhibition of O=C1C(O)CCN1C1CCCCC1 (stereo not given) ?
Result: -2.85

Task: Quick check: growth inhibition of S=c1c2ccccc2c(=S)n2n1CC=CC2 ?
Result: 0

Task: Quick check: growth inhibition of CCOC(=O)C(C)(C)C(O)C(C)C (stereo not given) ?
Result: 48.4

Task: Quick check: growth inhibition of C=C(C)C12CC3CC/C(=N/O)C(C1)C3(N1CCOCC1)C/C2=N/O (stereo not given) ?
Result: -12.3

Task: Quick check: growth inhibition of CN(C)C(=N/O)/C(=N\O)N(C)C ?
Result: -6.35

Task: Quick check: growth inhibition of Clc1ccc(-c2nc3ccccc3cc2N2CCCCC2)cc1 ?
Result: -38.5

Task: Quick check: growth inhibition of CCC(C)C(N=C1N=CNC2=NC=NC12)C(=O)O (stereo not given) ?
Result: 6.5

Task: Quick check: growth inhibition of O=C(Nc1ccccc1Cl)Nc1cccc2ccccc12 ?
Result: -1.6

Task: Quick check: growth inhibition of Cc1cc(O)c2c(c1)C[C@@H](O)C1=C2C(=O)c2c(O)ccc(OC3CC(O)C(OC4CC(OC5CCC(OC6CC(O)C(OC7CC(OC8CCC(O)C(C)O8)C(O)C(C)O7)C(C)O6)C(C)O5)C(O)C(C)O4)C(C)O3)c2C1=O (stereo not given in full) ?
Result: 84.8

Task: Quick check: growth inhibition of CC1(C)[C@@H]2CC[C@]1(C)[C@H](OC(=O)/C=C/c1ccccc1)C2 ?
Result: 8.5

Task: Quick check: growth inhibition of C1CCN(/N=N/c2nn[nH]n2)CC1 ?
Result: -23

Task: Quick check: growth inhibition of CSc1ncc(CO)c(Nc2ccccc2Cl)n1 ?
Result: -14

Task: Quick check: growth inhibition of CCC(CC)C(O)CCCN(C)C (stereo not given) ?
Result: 12.8

Task: Quick check: growth inhibition of O=C(O)/C=C/C(=O)Nc1cc2c(cc1Br)-c1ccccc1C2O (stereo not given) ?
Result: 14.1

Task: Quick check: growth inhibition of O=C(NNC(=O)c1ccc2ccccc2c1)c1ccc(Cl)c(Cl)c1 ?
Result: 17.1

Task: Quick check: growth inhibition of CC(C)(O)C1OCC(C2CCC3(C)C4=CCC5C(C)(C)C(O)CCC5(C)C4CCC23C)CC1O (stereo not given) ?
Result: 42.6

Task: Quick check: growth inhibition of COc1cc(C(=O)O)c(Br)c(OC)c1OC ?
Result: -12.7

Task: Quick check: growth inhibition of Cc1occc1C(=S)Nc1ccc(Cl)c(C(=O)OC2CCCC2)c1 ?
Result: 60.5

Task: Quick check: growth inhibition of O=C(NC(CO)C(=O)O)c1ccccc1 (stereo not given) ?
Result: -44.5

Task: Quick check: growth inhibition of N#CC(=C1CCCCC1)c1ccccc1 ?
Result: -5.75

Task: Quick check: growth inhibition of COC(=O)c1ccc2cc1Nc1c(C#N)cnc(=S)n1-2 ?
Result: 23.1

Task: Quick check: growth inhibition of CCCCCCCCC(C)c1cccc(C(C)CCCCCCCC)c1O (stereo not given) ?
Result: 22.2

Task: Quick check: growth inhibition of Clc1nc(N2CCOCC2)c2[nH]cnc2n1 ?
Result: -6.1

Task: Quick check: growth inhibition of O=S(=O)(SC(S(=O)(=O)c1ccccc1)S(=O)(=O)c1ccccc1)c1ccccc1 ?
Result: 1

Task: Quick check: growth inhibition of O=C1CNS(=O)(=O)N1 ?
Result: 10.2

Task: Quick check: growth inhibition of CCOCCOC(=O)c1ccc(C(N)=NC2CCCCC2)cc1 ?
Result: -4.1

Task: Quick check: growth inhibition of Cc1cc2c(cc1C)N1C(Cl)=C3CCCCC3=C(C#N)C1N2 (stereo not given) ?
Result: 28.3

Task: Quick check: growth inhibition of CN(C(=O)c1cccs1)C(=S)N1CCN(c2ccccn2)CC1 ?
Result: -11.8

Task: Quick check: growth inhibition of Cc1ccc(CN2CCOCC2)c(O)c1 ?
Result: -0.1

Task: Quick check: growth inhibition of CC[O-].CC[O-].O=C([CH-]C(=O)c1ccccc1)CCCCCCC(=O)[CH-]C(=O)c1ccccc1.[Ti+4] ?
Result: -4.7

Data credit: PubChem BioAssay (NCI)
